FYI, the data here is from ChEMBL document CHEMBL1153694.

assay: in vitro; settings: rat, liver microsomes
metric: half-life (min)
Numbers only, in min.

Some molecules with recorded half-life:
| smiles-representation | metric | reported-result |
| --- | --- | --- |
| CN(C)Cc1ccc(-c2cnn3c(-c4cccc(NC(=O)c5cccc(C(F)(F)F)c5)c4)ccnc23)cc1 | half-life | 6 |
| O=C(Nc1cccc(-c2ccnc3c(-c4ccc(CN5CCCC5)cc4)cnn23)c1)c1cccc(C(F)(F)F)c1 | half-life | 27 |

Look at each molecule and report its half-life.
1. CN1CCN(Cc2ccc(-c3cnn4c(-c5cccc(NC(=O)c6cccc(C(F)(F)F)c6)c5)ccnc34)cc2)CC1
2. O=C(Nc1cccc(-c2ccnc3c(-c4cnn(CCN5CCCC5)c4)cnn23)c1)c1cccc(C(F)(F)F)c1
3. CN1CCN(CCCC#Cc2cnn3c(-c4cccc(NC(=O)c5cccc(C(F)(F)F)c5)c4)ccnc23)CC1

Return:
1: 3; 2: 26; 3: 3

====

biological target: Proto-oncogene tyrosine-protein kinase Src (Homo sapiens, UniProt P12931)
Sequence (P12931 2-536 limits assumed): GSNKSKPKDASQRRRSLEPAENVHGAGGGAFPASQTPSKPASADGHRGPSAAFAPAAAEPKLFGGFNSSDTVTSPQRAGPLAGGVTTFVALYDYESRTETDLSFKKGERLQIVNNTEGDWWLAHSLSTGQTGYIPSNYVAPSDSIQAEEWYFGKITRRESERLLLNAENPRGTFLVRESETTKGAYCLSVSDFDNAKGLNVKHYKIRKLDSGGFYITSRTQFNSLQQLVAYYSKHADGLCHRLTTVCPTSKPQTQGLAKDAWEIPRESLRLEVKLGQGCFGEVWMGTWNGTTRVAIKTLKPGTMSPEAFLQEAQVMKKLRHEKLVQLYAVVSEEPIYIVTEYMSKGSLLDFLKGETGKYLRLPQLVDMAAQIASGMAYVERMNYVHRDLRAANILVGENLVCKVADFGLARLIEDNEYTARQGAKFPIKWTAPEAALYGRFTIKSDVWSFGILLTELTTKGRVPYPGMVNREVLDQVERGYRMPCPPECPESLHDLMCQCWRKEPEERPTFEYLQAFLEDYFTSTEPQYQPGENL
pIC50: −log10 of the molar value.
metric: pIC50

Enquiry: Reported pIC50, compound "CN(C)Cc1ccc(-c2cnn3c(-c4cccc(NC(=O)c5cccc(C(F)(F)F)c5)c4)ccnc23)cc1" : ____
Return: < 5.70

====

target: MAP kinase-activated protein kinase 2 (Homo sapiens, UniProt P49137); assay: Inhibition of MK2
Sequence (P49137 whole entry): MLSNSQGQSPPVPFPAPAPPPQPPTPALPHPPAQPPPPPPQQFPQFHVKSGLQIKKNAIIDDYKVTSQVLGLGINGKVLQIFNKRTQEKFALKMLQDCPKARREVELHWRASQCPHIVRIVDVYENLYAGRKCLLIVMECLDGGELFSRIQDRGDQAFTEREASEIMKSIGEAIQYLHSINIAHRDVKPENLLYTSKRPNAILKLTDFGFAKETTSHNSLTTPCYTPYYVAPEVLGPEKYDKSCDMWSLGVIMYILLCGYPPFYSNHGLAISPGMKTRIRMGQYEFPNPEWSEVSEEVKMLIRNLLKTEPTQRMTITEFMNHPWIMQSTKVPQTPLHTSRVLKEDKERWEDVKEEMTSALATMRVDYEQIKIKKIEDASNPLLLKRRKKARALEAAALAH
metric: IC50

Enquiry: // fetch MAP kinase-activated protein kinase 2 (Homo sapiens, UniProt P49137) IC50 for "CN(C)Cc1ccc(-c2cnn3c(-c4cccc(NC(=O)c5cccc(C(F)(F)F)c5)c4)ccnc23)cc1"
Return: > 2 µM

====

molecular target: UniProt P17252
metric: IC50

Enquiry: I would be grateful if you could share the reported IC50 for "CN(C)Cc1ccc(-c2cnn3c(-c4cccc(NC(=O)c5cccc(C(F)(F)F)c5)c4)ccnc23)cc1" .
Return: > 2 µM

====

molecular target: Mitogen-activated protein kinase 14 (Homo sapiens, UniProt Q16539); experiment: Inhibition of p38alpha
Sequence (Q16539 whole entry): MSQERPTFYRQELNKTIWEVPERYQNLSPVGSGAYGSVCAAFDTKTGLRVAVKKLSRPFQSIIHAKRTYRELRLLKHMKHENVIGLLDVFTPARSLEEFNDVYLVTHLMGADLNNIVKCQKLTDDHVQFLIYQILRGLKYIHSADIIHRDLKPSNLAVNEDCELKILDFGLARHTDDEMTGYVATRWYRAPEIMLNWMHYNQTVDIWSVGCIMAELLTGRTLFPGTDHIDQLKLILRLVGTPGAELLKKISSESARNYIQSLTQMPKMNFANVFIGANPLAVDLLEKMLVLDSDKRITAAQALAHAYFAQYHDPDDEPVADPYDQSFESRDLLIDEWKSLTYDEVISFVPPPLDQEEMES
metric: pIC50
Answers are plain numbers, as −log10 of the molar value.

Enquiry: Could you tell me which pIC50 is on file for "CN(C)Cc1ccc(-c2cnn3c(-c4cccc(NC(=O)c5cccc(C(F)(F)F)c5)c4)ccnc23)cc1" ?
Return: 6.67

====

experiment: Inhibition of CAMK2
metric: pIC50
Numbers only, as −log10 of the molar value.

Enquiry: Report pIC50 for "CN(C)Cc1ccc(-c2cnn3c(-c4cccc(NC(=O)c5cccc(C(F)(F)F)c5)c4)ccnc23)cc1" please.
Return: 6.09

====

target: Mitogen-activated protein kinase 8 (Homo sapiens, UniProt P45983); assay: Inhibition of JNK1
Sequence (P45983 whole entry): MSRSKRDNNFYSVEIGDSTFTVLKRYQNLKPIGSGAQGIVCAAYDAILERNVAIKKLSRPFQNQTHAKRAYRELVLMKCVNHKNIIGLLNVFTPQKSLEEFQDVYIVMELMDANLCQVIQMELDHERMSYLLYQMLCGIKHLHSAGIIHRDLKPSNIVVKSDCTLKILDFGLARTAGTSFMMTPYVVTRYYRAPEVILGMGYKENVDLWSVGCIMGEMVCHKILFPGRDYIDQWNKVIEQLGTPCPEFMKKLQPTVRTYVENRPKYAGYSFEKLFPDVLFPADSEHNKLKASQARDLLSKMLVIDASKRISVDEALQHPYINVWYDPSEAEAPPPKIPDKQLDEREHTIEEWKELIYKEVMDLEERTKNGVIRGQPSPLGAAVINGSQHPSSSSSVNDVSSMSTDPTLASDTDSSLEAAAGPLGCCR
metric: IC50

Enquiry: Any idea what IC50 was measured for "CN(C)Cc1ccc(-c2cnn3c(-c4cccc(NC(=O)c5cccc(C(F)(F)F)c5)c4)ccnc23)cc1" ?
Return: > 2000 nM

====

molecular target: Cyclin-dependent kinase 2 (Homo sapiens, UniProt P24941)
pIC50: −log10 of the molar value.
metric: pIC50

Enquiry: Request the reported pIC50 associated with "CN(C)Cc1ccc(-c2cnn3c(-c4cccc(NC(=O)c5cccc(C(F)(F)F)c5)c4)ccnc23)cc1"
Return: < 5.70

====

biological target: Serine/threonine-protein kinase B-raf (Homo sapiens, UniProt P15056); assay: Inhibition of human recombinant B-Raf expressed in Sf9 cells
Sequence (P15056 whole entry): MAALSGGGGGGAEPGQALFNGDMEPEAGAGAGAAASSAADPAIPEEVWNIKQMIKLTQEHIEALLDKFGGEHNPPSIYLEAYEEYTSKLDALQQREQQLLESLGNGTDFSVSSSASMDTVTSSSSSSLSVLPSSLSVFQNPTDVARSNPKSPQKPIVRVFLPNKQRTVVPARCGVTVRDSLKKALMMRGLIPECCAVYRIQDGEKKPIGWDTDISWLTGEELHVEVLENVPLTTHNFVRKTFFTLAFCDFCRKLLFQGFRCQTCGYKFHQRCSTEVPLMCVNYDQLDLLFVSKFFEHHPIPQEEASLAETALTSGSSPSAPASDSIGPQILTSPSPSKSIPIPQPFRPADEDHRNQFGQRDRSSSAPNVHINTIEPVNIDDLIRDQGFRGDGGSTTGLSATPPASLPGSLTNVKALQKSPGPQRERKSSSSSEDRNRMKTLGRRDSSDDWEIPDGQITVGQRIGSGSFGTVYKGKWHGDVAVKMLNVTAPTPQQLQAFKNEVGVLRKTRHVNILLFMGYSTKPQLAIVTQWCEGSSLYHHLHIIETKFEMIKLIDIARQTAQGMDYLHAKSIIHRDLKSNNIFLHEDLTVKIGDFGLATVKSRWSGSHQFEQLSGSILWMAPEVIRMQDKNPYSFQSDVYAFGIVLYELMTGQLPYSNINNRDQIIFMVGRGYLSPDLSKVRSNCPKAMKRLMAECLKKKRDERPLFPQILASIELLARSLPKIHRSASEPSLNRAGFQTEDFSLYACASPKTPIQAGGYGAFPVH
metric: IC50

Answered cases to consult:
| smiles-representation | metric | reported-result |
| --- | --- | --- |
| O=C(Nc1ccc(F)c(-c2ccnc3c(-c4cn[nH]c4)cnn23)c1)c1cccc(C(F)(F)F)c1 | IC50 | 18 nM |
| O=C(Nc1ccc(Cl)c(-c2ccnc3c(-c4cn[nH]c4)cnn23)c1)c1cccc(C(F)(F)F)c1 | IC50 | 42 nM |
| O=C(Nc1cccc(-c2ccnc3c(-c4ccc(CN5CCCC5)cc4)cnn23)c1)c1cccc(C(F)(F)F)c1 | IC50 | 20 nM |
| CN1CCN(Cc2ccc(-c3cnn4c(-c5cccc(NC(=O)c6cccc(C(F)(F)F)c6)c5)ccnc34)cc2)CC1 | IC50 | 38 nM |

Note: attention shifts to another entry.
Enquiry: Need IC50, item "CN1CCN(c2ccc(-c3cnn4c(-c5cc(NC(=O)c6cccc(C(F)(F)F)c6)ccc5F)ccnc34)cn2)CC1"
Return: 30 nM
